- Test system: HT29 colon
- assay-overview: NCI tumour cell line growth inhibition, 48 h; in the data active means GI50 below about 0.43 µM; inactive means the rest
Assign a class; possible classes are T for active, F for inactive

Query: Which outcome was entered for the molecule CCN(CC)c1cc2oc3cc(N)cc(=N)c-3nc2cc1C in this test?
Reply: F

Query: Which outcome was entered for the molecule Nc1nc(N)c2cc(CNc3ccc(C(=O)NC(CC(=O)O)C(=O)O)c(Cl)c3)ccc2n1 (stereo not drawn) in this test?
Reply: T

Query: Which outcome was entered for the molecule [F][Sn]([F])([c]1ccccc1)[c]1ccccc1 in this test?
Reply: F

Query: Which outcome was entered for the molecule CCCCCc1ccc(S(=O)(=O)Nc2cc(-c3csc(NC(C)=O)n3)ccc2N2CCN(C)CC2)cc1 in this test?
Reply: F

Query: Which outcome was entered for the molecule N.N.NCCCCCCCCCN.O=C([O-])CC(=O)[O-].O=C([O-])CC(=O)[O-].[Pt+4].[Pt+4] in this test?
Reply: F

Query: Which outcome was entered for the molecule C/C(=N\NC(=S)N1CC2CCC(CC2)C1)c1ccccn1 in this test?
Reply: T

Query: Which outcome was entered for the molecule O=c1[nH]c(=O)n([C@H]2CCCO2)cc1F in this test?
Reply: F

Query: Which outcome was entered for the molecule Clc1cc(Cl)cc(Nc2ccc3cc(OCCCN4CCOCC4)ccc3n2)c1 in this test?
Reply: F

====

- Tested on: RXF 393 renal
- assay-overview: NCI tumour cell line growth inhibition, 48 h
quantity-measured: log10 of TGI (log10 of the value in µM)
Log scale reminder: TGI in µM, then log10 taken.

Query: Endpoint output: log10 of TGI of Clc1ccc(Cl)c(SCCCN2CCNCC2)c1 . Value?
Reply: 1.51

Query: Endpoint output: log10 of TGI of COc1ccc2c(c1)CCN=C2c1ccccc1CCCCl . Value?
Reply: 1.91

Query: Endpoint output: log10 of TGI of COc1ccc(N=C2C(=S)N(c3ccc(OC)cc3)/C(=N/S(=O)(=O)c3ccccc3)N2c2ccccc2)cc1 . Value?
Reply: 1.20

Query: Endpoint output: log10 of TGI of CC1=C(C(=O)Nc2ccccc2)C(c2ccc(C3C(C(=O)Nc4ccccc4)=C(C)NC(C)=C3C(=O)Nc3ccccc3)cc2)C(C(=O)Nc2ccccc2)=C(C)N1 . Value?
Reply: 0.59

Query: Endpoint output: log10 of TGI of CN1CCN(c2ccc(Nc3ncc4cc(C#N)c(=O)n(C5CCCC5)c4n3)cc2)CC1 . Value?
Reply: 0.35

====

- Test system: KM12 colon
- assay-overview: NCI tumour cell line growth inhibition, 48 h
Would you kindly list TGI for each of these compounds?
Quick reminder: number only, in µM, skip the unit.

Query: Endpoint output: TGI of Clc1ccc(N=CNc2ccc(-c3nc4ccccc4o3)cc2)cc1 . Value?
Reply: 38.7

Query: Endpoint output: TGI of O=C1CCc2ccc3c(c21)CC1(Cc2ccccc2C1)C3 . Value?
Reply: 46

Query: Endpoint output: TGI of O=C(NO)c1ccc(CN(c2cnccn2)c2cnccn2)cc1 . Value?
Reply: 24.2

Query: Endpoint output: TGI of CC1C(c2ccc3c(c2)OCO3)c2cc3c(cc2OC1N1CCOCC1)OCO3 (configuration not stated) . Value?
Reply: 94.2

====

- Tested on: RPMI-8226 leukemia
- assay-overview: NCI tumour cell line growth inhibition, 48 h
Would you kindly list GI50 for each of these molecules?

Query: Endpoint output: GI50 of CN1CCN(c2ccc(Nc3ncc4cc(C#N)c(=O)n(C5CCCC5)c4n3)cc2)CC1 . Value?
Reply: 870 nM

Query: Endpoint output: GI50 of O=c1[nH]c(=O)n([C@H]2CCCO2)cc1F . Value?
Reply: 666000 nM

Query: Endpoint output: GI50 of CCN(CC)c1cc2oc3cc(N)cc(=N)c-3nc2cc1C . Value?
Reply: 1030 nM

Query: Endpoint output: GI50 of C=CCN1CC2CON(C(=O)C(OC)(c3ccccc3)C(F)(F)F)C2C1C(C)C (configuration not stated) . Value?
Reply: 9.82 µg/mL

Query: Endpoint output: GI50 of C[C@]12CC[C@@H]3c4ccc(O)c([N+](=O)[O-])c4CC[C@H]3[C@@H]1CC[C@@H]2NS(=O)(=O)c1cccc(Br)c1 . Value?
Reply: 2440 nM

Query: Endpoint output: GI50 of COc1ccc(/C=C(/c2ccccc2)[N+](=O)[O-])cc1 . Value?
Reply: 486 nM

Query: Endpoint output: GI50 of Nc1ccccc1SC1CC(=O)N(c2ccc(Cl)c(Cl)c2)C1=O (configuration not stated) . Value?
Reply: 10600 nM

Query: Endpoint output: GI50 of O=C1C(Cl)=C(Nc2ccccc2O)C(=O)N1Cc1ccccc1 . Value?
Reply: 12500 nM

Query: Endpoint output: GI50 of O=C(CSC(c1ccccc1)c1ccccc1)N/N=C/c1ccco1 . Value?
Reply: 1940 nM

Query: Endpoint output: GI50 of O=C1CSC(c2ccc(-c3nc4ccccc4s3)cc2)=N1 . Value?
Reply: 23200 nM

Query: Endpoint output: GI50 of N#Cc1ccc(OC(=O)Nc2ccc(Cl)c(Cl)c2)cc1 . Value?
Reply: 2430 nM

Query: Endpoint output: GI50 of CCN1C(=O)N(CC)C2Nn3c(s/c(=C4\C(=O)N(C)c5ccccc54)c3=O)=NC21 (configuration not stated) . Value?
Reply: 3970 nM
